- Target Entity: ICAM-1 expressed on cells (JY cells; stimulated endothelial cells) (UniProt P05362 28-532, limits assumed)
- Sequence (P05362 28-532 limits assumed): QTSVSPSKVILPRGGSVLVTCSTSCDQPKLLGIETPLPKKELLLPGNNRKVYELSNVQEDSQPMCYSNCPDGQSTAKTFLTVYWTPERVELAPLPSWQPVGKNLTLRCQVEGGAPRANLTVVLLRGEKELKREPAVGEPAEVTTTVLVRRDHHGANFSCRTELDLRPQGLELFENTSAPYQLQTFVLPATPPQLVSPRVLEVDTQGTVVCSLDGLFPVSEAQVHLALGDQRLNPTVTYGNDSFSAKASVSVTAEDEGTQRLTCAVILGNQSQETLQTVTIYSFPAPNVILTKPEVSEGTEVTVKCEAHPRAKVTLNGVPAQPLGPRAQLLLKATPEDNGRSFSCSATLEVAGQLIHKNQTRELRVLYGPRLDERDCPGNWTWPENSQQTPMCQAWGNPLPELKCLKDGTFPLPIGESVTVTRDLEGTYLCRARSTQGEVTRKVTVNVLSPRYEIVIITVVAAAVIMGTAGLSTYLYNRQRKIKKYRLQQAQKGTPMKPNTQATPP
- Procedure Text: cell-based or functional assay
Bridge positions count the residues as written; N and C are the ends. Ends that are not written are not given here.
Readout Type: Percent JY Aggregation

Below, 2 binders whose answers are already recorded.
- Binder: "CLLKMRSAC (disulfide 1-9) [CLLKMRSAC (SEQ ID NO: 45), cyclic disulfide-linked peptide]"
  Percent JY Aggregation: "3 percent"
- Binder: "CLVRMRSAC (disulfide 1-9) [CLVRMRSAC (SEQ ID NO: 41), cyclic disulfide-linked peptide]"
  Percent JY Aggregation: "55 percent"

Now look at this one.
Kindly note the recorded Percent JY Aggregation for CLLRMRSVC (disulfide 1-9) [CLLRMRSVC (SEQ ID NO: 48), cyclic disulfide-linked peptide] , which is 4 percent

Where these numbers come from: patent US20010034326A1
